Target: human receptor tyrosine kinase like orphan receptor 1 (ROR1) (human, UniProt Q01973 30-937)
Sequence (Q01973 30-937): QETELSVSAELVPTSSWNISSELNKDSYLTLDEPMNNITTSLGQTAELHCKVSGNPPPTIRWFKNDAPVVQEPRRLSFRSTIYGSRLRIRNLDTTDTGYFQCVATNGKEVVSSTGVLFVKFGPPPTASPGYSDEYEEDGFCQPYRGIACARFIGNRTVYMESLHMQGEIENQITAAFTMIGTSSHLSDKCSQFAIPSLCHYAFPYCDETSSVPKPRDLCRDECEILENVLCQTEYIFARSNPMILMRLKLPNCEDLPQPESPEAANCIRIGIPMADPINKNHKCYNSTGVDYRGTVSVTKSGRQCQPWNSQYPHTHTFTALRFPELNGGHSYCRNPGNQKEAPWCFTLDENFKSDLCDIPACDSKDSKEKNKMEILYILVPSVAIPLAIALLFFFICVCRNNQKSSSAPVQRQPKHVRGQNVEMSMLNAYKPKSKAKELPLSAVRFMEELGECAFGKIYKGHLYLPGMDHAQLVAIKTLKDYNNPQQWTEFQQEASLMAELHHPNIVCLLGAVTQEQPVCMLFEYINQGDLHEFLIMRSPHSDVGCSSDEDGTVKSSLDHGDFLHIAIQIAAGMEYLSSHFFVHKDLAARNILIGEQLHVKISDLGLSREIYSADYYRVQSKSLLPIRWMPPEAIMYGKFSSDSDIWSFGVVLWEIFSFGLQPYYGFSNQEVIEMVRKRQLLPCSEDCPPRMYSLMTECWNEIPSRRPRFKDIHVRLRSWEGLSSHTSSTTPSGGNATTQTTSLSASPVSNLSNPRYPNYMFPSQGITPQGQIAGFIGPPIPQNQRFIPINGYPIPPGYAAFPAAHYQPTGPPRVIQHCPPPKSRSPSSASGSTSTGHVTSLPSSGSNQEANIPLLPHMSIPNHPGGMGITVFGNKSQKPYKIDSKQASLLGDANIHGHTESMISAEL
Experiment: cell-based or functional assay
reported.endpoint: IC50, cell viability (CellTiter-Glo, 72 h), Bt549 cells (nM)
# unit: nM | format: bare number

So what does the record say about IC50, cell viability (CellTiter-Glo, 72 h), Bt549 cells for ADC-E (antibody, human IgG1, kappa, V domains shown, SC-VC-PAB-MMAE bonded via lysine residues of the antibody (chain and positions not stated)) VH: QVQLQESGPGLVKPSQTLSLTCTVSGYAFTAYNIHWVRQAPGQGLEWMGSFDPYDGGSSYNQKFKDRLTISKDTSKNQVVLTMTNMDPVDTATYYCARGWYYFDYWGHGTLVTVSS VL: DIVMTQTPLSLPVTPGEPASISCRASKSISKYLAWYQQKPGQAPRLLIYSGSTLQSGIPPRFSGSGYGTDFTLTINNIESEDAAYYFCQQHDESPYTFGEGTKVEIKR ?
74.4

Hello, the source for this data is patent USRE50631, in case you need it.
